Biological target: human activated kallikrein enzyme (Homo sapiens, UniProt P03952)
Sequence (P03952 391-638 limits assumed): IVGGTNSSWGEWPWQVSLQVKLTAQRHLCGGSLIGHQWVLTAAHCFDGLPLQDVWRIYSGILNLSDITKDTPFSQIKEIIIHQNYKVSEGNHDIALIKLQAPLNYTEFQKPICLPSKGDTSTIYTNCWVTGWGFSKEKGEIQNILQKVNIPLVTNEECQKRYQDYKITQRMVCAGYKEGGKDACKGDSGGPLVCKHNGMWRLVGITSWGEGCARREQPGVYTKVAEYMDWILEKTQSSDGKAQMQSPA
Sequence (P03952 20-390 partner limits assumed): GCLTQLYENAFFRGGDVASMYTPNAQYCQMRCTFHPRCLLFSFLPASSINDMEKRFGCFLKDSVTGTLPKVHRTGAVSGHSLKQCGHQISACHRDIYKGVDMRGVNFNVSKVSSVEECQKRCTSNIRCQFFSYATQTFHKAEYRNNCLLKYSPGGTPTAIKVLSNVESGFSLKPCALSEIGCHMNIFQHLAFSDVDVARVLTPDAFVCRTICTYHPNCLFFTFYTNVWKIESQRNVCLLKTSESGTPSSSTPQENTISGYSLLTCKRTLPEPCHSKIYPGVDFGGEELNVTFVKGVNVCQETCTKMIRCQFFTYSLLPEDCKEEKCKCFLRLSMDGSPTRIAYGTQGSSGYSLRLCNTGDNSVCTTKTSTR
Experiment: Inhibition of human activated kallikrein enzyme, fluorogenic peptide substrate assay (500 pM enzyme format)
Conditions: 500 pM activated kallikrein, 300 μM PFR-AMC substrate, 30 min preincubation, 10 min reaction, room temperature; read-out: Primary Dose Response Assay: Average EC50
Method: Compounds were evaluated for inhibition of the human activated kallikrein enzyme in two formats of an assay employing a fluorogenic peptide substrate. […] After initiation with substrate, reactions were incubated for 10 min at room temperature and fluorescence emission at 460 nm from 380 nm excitation measured with a microplate reader. […]
Structures can show the parent of a compound that is named as a salt.
Consider the following compounds; for each one, report its EC50.

What EC50 value was documented for this compound, CN(Cc1cn2cc(C3CC3)cc(N3CCCC3=O)c2n1)c1cc(NC(=O)Cc2ncn3ccc(Cl)cc23)ncn1 [Example 18] ?
≤ 5 nM

For the compound shown here, O=C(Cc1ncn2ccc(Cl)cc12)Nc1cc(NCc2cn3cc(C4CC4)cc(C4(O)COC4)c3n2)ncn1 [Example 14] , give the reported EC50.
≤ 5 nM

Bench note: what EC50 did Cc1cc(C(=N)N)cc(C)c1CNc1cc(OCc2cn3cc(C4CC4)cc(CC(=O)O)c3n2)ncn1 [Example 95] show?
≤ 5 nM

What EC50 value was documented for this compound, O=C(Cc1ncn2ccc(Cl)cc12)Nc1cc(Cc2cn3cc(C4CC4)ccc3n2)ncn1 [Example 57, formic acid salt] ?
≤ 5 nM

Could you share which EC50 value was measured for Nc1nccc2c1CC(C(=O)Nc1cc(NCc3cn4cc(C5CC5)ccc4n3)ccn1)C2 (stereo not drawn) [Example 29] ?
500 to 9000 nM

Record request: EC50 value, item O=C(Cn1c(=O)oc2ccc(Cl)cc21)Nc1cc(NCc2cn3cc(C4CC4)ccc3n2)ncn1 [Example 123]
500 to 9000 nM

// lookup EC50 for COc1ccc(CNc2cc(NCc3cn4cc(C5CC5)ccc4n3)ncn2)c(OC)c1 [Example 136]
500 to 9000 nM

For the compound shown here, CC(C(=O)Nc1cc(NCc2cn3cc(C4CC4)ccc3n2)ncn1)N(C)c1cccc(Cl)c1 (stereo not drawn) [Example 9] , give the reported EC50.
500 to 9000 nM

// query EC50 value for entry O=C(Cn1nnc2ccc(Cl)cc21)Nc1cc(NCc2cn3cc(C4CC4)ccc3n2)ccn1 [Example 27]
500 to 9000 nM

Item under review: O=C(Cc1ncn2ccc(Cl)cc12)Nc1cc(NCc2cn3cc(C4CC4)cc(C4(F)COC4)c3n2)ncn1 [Example 19] . Reported EC50?
≤ 5 nM

Item under review: CCCCCCOC(=O)NC(=N)c1cc(C)c(CNc2cc(OCc3cn4cc(C5CC5)ccc4n3)nc(CCC(=O)OCC)n2)c(C)c1 [Example 75] . Reported EC50?
50 to 500 nM

Consider the compound O=C(Cc1ncn2ccc(Cl)cc12)Nc1cc(NCc2cn3cc(C4CC4)ccc3n2)ccn1 [Example 25] and give its measured EC50.
≤ 5 nM

Item under review: Cc1cc(C(=N)NO)cc(C)c1CNc1cc(OCc2cn3cc(C4CC4)ccc3n2)ncn1 [Example 71] . Reported EC50?
5 to 50 nM

Any idea what its EC50 is? The compound is CC(C(=O)Nc1cc(NCc2cn3cc(C4CC4)ccc3n2)ncn1)c1ncn2ccc(Cl)cc12 (stereo not drawn) [Example 4]
5 to 50 nM

Query: EC50; subject: O=C(Nc1cc(NCc2cn3cc(C4CC4)ccc3n2)ncn1)C(=O)c1ncn2ccc(Cl)cc12 [Example 54]
≤ 5 nM

What does the data say about its EC50? Entry: O=C(Cc1cc(Cl)ccc1-c1nnn[nH]1)Nc1cc(NCc2cn3cc(C4CC4)ccc3n2)ncn1 [Example 10]
> 9000 nM

Entry COc1ccc(C#N)c(CC(=O)Nc2cc(NCc3cn4cc(C5CC5)ccc4n3)ncn2)c1F [Example 3] : reported EC50 = ?
500 to 9000 nM

What value of EC50 has been recorded for this entry: COc1ccc2oc(=O)n(CC(=O)Nc3cc(NCc4cn5cc(C6CC6)ccc5n4)ccn3)c2c1 [Example 125]
> 9000 nM

Requested read-out: EC50. Entry: CCOC(=O)CCc1cc(C2CC2)cn2cc(COc3cc(NCc4c(C)cc(C(=N)N)cc4C)ncn3)nc12 [Example 96]
≤ 5 nM

Can you share its EC50? I mean this compound: CC(=O)OCONC(=N)c1cc(C)c(CNc2cc(OCc3cn4cc(C5CC5)ccc4n3)ncn2)c(C)c1 [Example 90]
500 to 9000 nM

Please give the measured EC50 for this compound: CCOC(=O)C(C)(C)Cc1cc(C2CC2)cn2cc(CNc3cc(NC(=O)Cc4ncn5ccc(Cl)cc45)ncn3)nc12 [Example 47]
5 to 50 nM

# get_value(readout='EC50', item= COc1ccc(-n2cnnn2)c(CC(=O)Nc2cc(NCc3cn4cc(C5CC5)ccc4n3)ncn2)c1F [Example 37] )
≤ 5 nM

Consider the compound O=C(Cc1ncn2ccc(Cl)cc12)Nc1cncnc1NCc1cn2cc(C3CC3)cc(CO)c2n1 [Example 41] and give its measured EC50.
5 to 50 nM

Name the reported EC50 value associated with the compound O=S(=O)(Nc1cc(NCc2cn3cc(C4CC4)ccc3n2)ncn1)C1CC1c1cccc(Cl)c1 (stereo not drawn) [Example 67]
500 to 9000 nM

Sample CN1CCN(c2cc(C3CC3)cn3cc(CNc4cc(NC(=O)Cc5ncn6ccc(Cl)cc56)ncn4)nc23)CC1 [Example 17] — what was its EC50?
≤ 5 nM

Consider the compound CCCCCCOC(=O)NC(=N)c1cc(C)c(CNc2cc(OCc3cn4cc(C5CC5)ccc4n3)nc(C(=O)OCC)n2)c(C)c1 [Example 87] and give its measured EC50.
50 to 500 nM

Fill in: EC50 of O=C(/C=C/c1cccc(Cl)c1)Nc1cc(NCc2cn3cc(C4CC4)ccc3n2)ccn1 [Example 114] is ___
5 to 50 nM

Value lookup for EC50; key = Cc1cc(N)nc(C)c1CNc1cc(OCc2cn3cc(C4CC4)cc(CO)c3n2)ncn1 [Example 113]
≤ 5 nM

Which EC50 value is on record for COc1ccc(-n2cnnn2)c(CNc2cc(NCc3cn4cc(C5CC5)ccc4n3)ncn2)c1F [Example 55] ?
≤ 5 nM

Entry CCCCCCOC(=O)NC(=N)c1cc(C)c(CNc2cc(OCc3cn4cc(C5CC5)ccc4n3)ncn2)c(C)c1 [Example 76] has what EC50?
50 to 500 nM
